Test system: hSERT, hNET, and hDAT
Test Method Notes: Simultaneous binding to cloned human transporters hSERT, hNET and hDAT
Condition Set: Table 5, comparison of rat and human data
Measurement Name: Simultaneous Transporter Binding Potency (Human)

{"Compound": "CC(C)(C)[C@@H](O)[C@H](CN)c1ccc2ccccc2c1 (relative stereo)", "Result": "no"}
{"Compound": "COc1ccc([C@H](CN(C)C)[C@@H](O)C2CCCCC2)cc1.Cl (racemic)", "Result": "no"}

----------
Target System: NE reuptake into rat brain synaptosomes (Rattus norvegicus, UniProt Q63380)
Construct: A crude synaptosomal (P2) fraction was prepared; tissue Harlan Sprague-Dawley (animals); host or cells: rat hippocampus, crude synaptosomal (P2) fraction
Sequence (Q63380 1-617): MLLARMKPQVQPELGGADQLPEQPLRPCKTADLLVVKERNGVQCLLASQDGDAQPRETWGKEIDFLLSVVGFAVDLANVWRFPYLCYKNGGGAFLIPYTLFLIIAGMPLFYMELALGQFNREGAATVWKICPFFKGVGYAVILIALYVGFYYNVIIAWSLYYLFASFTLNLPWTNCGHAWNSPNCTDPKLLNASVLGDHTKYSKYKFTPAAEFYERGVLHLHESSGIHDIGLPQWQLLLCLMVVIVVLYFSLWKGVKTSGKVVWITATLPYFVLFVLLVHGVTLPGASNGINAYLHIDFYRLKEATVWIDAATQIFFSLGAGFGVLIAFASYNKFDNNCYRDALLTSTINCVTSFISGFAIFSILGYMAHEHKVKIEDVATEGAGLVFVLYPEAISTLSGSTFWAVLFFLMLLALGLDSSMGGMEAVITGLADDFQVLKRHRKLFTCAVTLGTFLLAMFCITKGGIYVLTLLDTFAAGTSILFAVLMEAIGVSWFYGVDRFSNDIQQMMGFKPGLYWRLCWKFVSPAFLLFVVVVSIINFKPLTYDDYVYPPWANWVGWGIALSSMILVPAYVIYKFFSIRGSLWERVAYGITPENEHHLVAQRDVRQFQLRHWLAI
Test Method Notes: biochemical
Design: species or system rat (male Sprague-Dawley), hippocampal tissue
Condition Set: rat brain synaptosomes
Measurement Name: pKi
Keep it numeric: pKi is minus log10 of the concentration in mol/L.

Dear colleague, I am looking for the recorded pKi of the following compound: CN(C)C[C@H](c1ccc2ccccc2c1)[C@H](O)C(C)(C)C (relative stereo) [Compound A]
8.00

----------
System: 5-HT, NE and DA reuptake into rat brain synaptosomes
Assay type: biochemical, rat (male Sprague-Dawley)
Condition Set: Table 5, comparison of rat and human data
Measurement Name: Simultaneous Reuptake Inhibition Potency (Rat)

{"Compound": "COc1ccc([C@H](CN(C)C)[C@@H](O)C2CCCCC2)cc1.Cl (racemic) [Compound E]", "Result": "no"}
{"Compound": "NC[C@H](c1ccc2ccccc2c1)[C@H](O)c1ccccc1 (relative stereo) [Compound D]", "Result": "no"}
{"Compound": "CC(C)(C)[C@@H](O)[C@H](CN)c1ccc2ccccc2c1 (relative stereo) [Compound C]", "Result": "no"}

----------
Test system: hSERT, hNET, and hDAT
Test Method Notes: Simultaneous binding to cloned human transporters hSERT, hNET and hDAT
Condition Set: Table 4; each of the potency values greater than 7.0

{"Compound": "CC(C)(C)[C@@H](O)[C@H](CN)c1ccc2ccccc2c1 (relative stereo) [Compound C]", "Simultaneous Transporter Binding Potency": "no"}
{"Compound": "COc1ccc([C@H](CN(C)C)[C@@H](O)C2CCCCC2)cc1.Cl (racemic) [Compound E]", "Simultaneous Transporter Binding Potency": "no"}

----------
Target System: DA reuptake into rat brain synaptosomes (Rattus norvegicus)
Construct: A crude synaptosomal (P2) fraction was prepared; tissue Harlan Sprague-Dawley (animals); host or cells: rat striatum, crude synaptosomal (P2) fraction
Sequence (P23977 whole entry): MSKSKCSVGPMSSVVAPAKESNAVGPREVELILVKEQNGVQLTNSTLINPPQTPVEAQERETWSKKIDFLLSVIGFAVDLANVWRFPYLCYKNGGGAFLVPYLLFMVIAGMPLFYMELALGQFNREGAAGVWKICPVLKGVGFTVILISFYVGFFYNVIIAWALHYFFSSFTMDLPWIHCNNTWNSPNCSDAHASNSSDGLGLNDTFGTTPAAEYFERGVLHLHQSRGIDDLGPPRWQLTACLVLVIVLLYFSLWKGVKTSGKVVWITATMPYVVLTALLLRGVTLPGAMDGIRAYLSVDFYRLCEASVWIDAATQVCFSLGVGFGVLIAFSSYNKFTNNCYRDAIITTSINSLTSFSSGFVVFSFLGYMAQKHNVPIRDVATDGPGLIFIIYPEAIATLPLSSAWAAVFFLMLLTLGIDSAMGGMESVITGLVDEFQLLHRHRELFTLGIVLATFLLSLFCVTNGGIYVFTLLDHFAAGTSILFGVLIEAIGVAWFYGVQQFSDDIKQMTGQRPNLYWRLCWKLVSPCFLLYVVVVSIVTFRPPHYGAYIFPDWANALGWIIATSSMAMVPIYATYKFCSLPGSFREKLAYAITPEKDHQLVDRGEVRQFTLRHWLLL
Test Method Notes: DA reuptake inhibition in rat brain synaptosomes
Format: biochemical, rat (male Sprague-Dawley), striatal tissue
Condition Set: Ki (DA)/Ki (compound or drug); Prozac to Serzone derived from literature Ki
Classify by measured DA (Rat) Reuptake Inhibition Potency: condition met if it is equal to or exceeds 0.1, condition not met if it is smaller.

Here's what some known entries look like.
{"Molecule": "CC(C)(C)[C@@H](O)[C@H](CN)c1ccc2ccccc2c1 (relative stereo) [Compound C]", "Assigned Class": "condition met"}
{"Molecule": "CNCCC(Oc1ccc(C(F)(F)F)cc1)c1ccccc1 (stereo not drawn) [Prozac ®, reference compound]", "Assigned Class": "condition not met"}

hey, is DA (Rat) Reuptake Inhibition Potency for this one >= 0.1? CN(C)C[C@H](c1ccc2ccccc2c1)[C@H](O)C(C)(C)C (relative stereo) [Compound A]
condition met

Hello, I need to know if CCc1nn(CCCN2CCN(c3cccc(Cl)c3)CC2)c(=O)n1CCOc1ccccc1 [Serzone ®, reference compound] has measured DA (Rat) Reuptake Inhibition Potency not below 0.1. Thanks!
condition not met

Given the entry COc1ccc(C(CN(C)C)C2(O)CCCCC2)cc1 (stereo not drawn) [Effexor ®, reference compound] , answer whether its DA (Rat) Reuptake Inhibition Potency meets or surpasses 0.1.
condition met

----------
Target System: DA reuptake into rat brain synaptosomes (Rattus norvegicus)
Construct: A crude synaptosomal (P2) fraction was prepared; tissue Harlan Sprague-Dawley (animals)
Test Method Notes: DA reuptake inhibition in rat brain synaptosomes
Condition Set: rat brain synaptosomes
Measurement Name: pKi
# pKi: negative log10 of molar concentration; output just the value

# lookup: pKi of CN(C)C[C@H](c1ccc2ccccc2c1)[C@H](O)C(C)(C)C (relative stereo) [Compound A]
7.22
